Where these numbers come from: ChEMBL document CHEMBL4483862

tested on: Plasmodium berghei; assay: Luciferase/luciferin-expressing antifolate-resistant parasites were used to infect a culture of HepG2 cells that were pre-incubated with compounds. Infected hepatocytes emit light due to the luciferase reaction. Assay results are presented as the percent inhibition of light emission compared to control. […]; format: functional; conditions: sporozoite, PBLUC_HILL_SLOPE 11.5, PBLUC_R_SQUARED 0.538, read-out: LUCIFERASE INFECTION ASSAY - IC50
Measured metric: IC50 (µM)
Number only, in µM; omit the unit.

Entry `Cc1cc(Cl)ccc1OCCCC(=O)NCCn1c(C)nc2ccccc21` has what IC50?
9.27

---

tested on: Plasmodium berghei; test: Luciferase/luciferin-expressing antifolate-resistant parasites were used to infect a culture of HepG2 cells that were pre-incubated with compounds. Infected hepatocytes emit light due to the luciferase reaction. Assay results are presented as the percent inhibition of light emission compared to control. […]; format: functional; details: sporozoite, HEPG2TOX_HILL_SLOPE 2.47, HEPG2TOX_R_SQUARED 0.19, PBLUC_HILL_SLOPE 1.42, PBLUC_R_SQUARED 0.29, read-out: LUCIFERASE INFECTION ASSAY - IC50
Measured metric: IC50 (µM)
Kindly answer with a numeric value in µM, unit omitted.

Would you mind telling me what IC50 value was observed for `Cc1ccc(CNC(=O)CN2CCCN(Cc3ccc(Cl)cc3)CC2)cc1F` ?
4.84
